- test.target: Non-receptor tyrosine-protein kinase TYK2 (Homo sapiens, UniProt P29597)
- Sequence (P29597 whole entry): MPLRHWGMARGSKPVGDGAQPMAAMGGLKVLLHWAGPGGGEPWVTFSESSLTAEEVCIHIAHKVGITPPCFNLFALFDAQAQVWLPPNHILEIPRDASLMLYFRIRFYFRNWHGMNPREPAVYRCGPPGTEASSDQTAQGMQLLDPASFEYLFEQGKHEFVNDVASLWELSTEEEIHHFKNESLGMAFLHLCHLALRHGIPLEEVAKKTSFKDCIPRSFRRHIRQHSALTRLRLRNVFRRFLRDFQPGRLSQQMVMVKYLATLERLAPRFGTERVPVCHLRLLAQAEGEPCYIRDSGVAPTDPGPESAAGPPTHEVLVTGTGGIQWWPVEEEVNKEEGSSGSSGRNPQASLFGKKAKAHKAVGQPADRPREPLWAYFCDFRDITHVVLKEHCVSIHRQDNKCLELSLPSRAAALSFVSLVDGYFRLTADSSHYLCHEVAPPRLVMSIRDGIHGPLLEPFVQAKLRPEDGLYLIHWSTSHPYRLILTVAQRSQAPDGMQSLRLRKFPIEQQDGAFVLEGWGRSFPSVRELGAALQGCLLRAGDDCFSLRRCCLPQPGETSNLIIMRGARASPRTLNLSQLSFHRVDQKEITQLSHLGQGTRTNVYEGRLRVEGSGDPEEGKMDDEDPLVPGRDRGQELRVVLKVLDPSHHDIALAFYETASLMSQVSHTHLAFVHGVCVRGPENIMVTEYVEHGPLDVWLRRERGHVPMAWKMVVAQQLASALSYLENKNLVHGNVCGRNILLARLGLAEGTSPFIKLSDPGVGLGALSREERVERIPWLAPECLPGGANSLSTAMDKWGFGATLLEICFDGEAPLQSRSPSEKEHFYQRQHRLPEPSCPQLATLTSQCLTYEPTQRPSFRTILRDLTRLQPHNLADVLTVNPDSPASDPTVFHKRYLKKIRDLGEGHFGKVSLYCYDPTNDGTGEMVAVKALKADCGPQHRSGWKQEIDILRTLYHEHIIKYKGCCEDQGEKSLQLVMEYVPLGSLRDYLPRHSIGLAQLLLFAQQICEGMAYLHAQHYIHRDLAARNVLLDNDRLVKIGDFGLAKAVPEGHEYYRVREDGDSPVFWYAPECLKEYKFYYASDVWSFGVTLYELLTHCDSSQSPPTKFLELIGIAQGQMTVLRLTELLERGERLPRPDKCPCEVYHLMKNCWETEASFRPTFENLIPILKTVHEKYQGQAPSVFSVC
measured.parameter: pIC50
Lab note: report pIC50 as minus log10 of the concentration in molar units, number only.

Sure, the documented pIC50 for `Cc1cnc(Nc2ccc(N3CCOCC3)cc2)nc1-c1cc2c(o1)CCN(C(=O)CC#N)C2` is 8.52

----------
- experiment.summary: Cmax in Sprague-Dawley rat at 2.5 mg/kg, iv after 2 mins to 24 hrs by LC-MS/MS analysis
- Type: ADME, organism-based
- Set-up: dose 2.5 mg/kg, route intravenous
- test.settings: in vivo
measured.parameter: Cmax (ng/mL)
Express your answer in ng/mL, writing the number without its unit.

`Cc1cnc(Nc2ccc(N3CCOCC3)cc2)nc1-c1cc2c(o1)CCN(C(=O)CC#N)C2` has a reported Cmax of 2340

----------
measured.parameter: IC50 (nM)
Give the value in nM but do not write nM after it.

Considering `Cc1cnc(Nc2ccc(N3CCOCC3)cc2)nc1-c1cc2c(o1)CCN(C(=O)CC#N)C2` , its IC50 with Tyrosine-protein kinase JAK1 (Homo sapiens, UniProt P23458) was recorded as 5.1

----------
- experiment.summary: AUC (0 to t) in Sprague-Dawley rat at 2.5 mg/kg, iv after 2 mins to 24 hrs by LC-MS/MS analysis
- Assay type: ADME, organism-based
- Design: time 0.033-24 hr, dose 2.5 mg/kg, route intravenous
- test.settings: in vivo
measured.parameter: AUC(0-t) (ng·h/mL)
Field format: number, assumed ng·h/mL, no unit text.

AUC(0-t) reported for this molecule `Cc1cnc(Nc2ccc(N3CCOCC3)cc2)nc1-c1cc2c(o1)CCN(C(=O)CC#N)C2` : 1000

----------
- experiment.summary: Half life in Sprague-Dawley rat at 2.5 mg/kg, iv after 2 mins to 24 hrs by LC-MS/MS analysis
- Type: ADME, organism-based
- test.settings: in vivo
measured.parameter: half-life (min)
The reply should be a number in min, with the unit left off.

Lab note: `Cc1cnc(Nc2ccc(N3CCOCC3)cc2)nc1-c1cc2c(o1)CCN(C(=O)CC#N)C2` gave half-life of 33

----------
measured.parameter: pIC50
pIC50 here: minus log base 10 of the concentration, concentration in moles per litre.

Query `Cc1cnc(Nc2ccccc2)nc1-c1cc2c(o1)CCN(C(=O)CC#N)C2` on Tyrosine-protein kinase JAK2 (Homo sapiens, UniProt O60674); pIC50 returned: 8.54

Log: Tyrosine-protein kinase JAK2 (Homo sapiens, UniProt O60674), compound `Cc1cnc(Nc2ccc(N3CCN(C)CC3)cc2)nc1-c1cc2c(o1)CCN(C(=O)CC#N)C2` , pIC50 = 8.80

GET /values?item= `Cc1cnc(Nc2ccc(OCCN3CCCC3)cc2)nc1-c1cc2c(o1)CCN(S(C)(=O)=O)C2` &system= Tyrosine-protein kinase JAK2 (Homo sapiens, UniProt O60674) returns pIC50: 8.39

pIC50 on Tyrosine-protein kinase JAK2 (Homo sapiens, UniProt O60674) for `Cc1cnc(Nc2ccc(OCCN3CCCC3)cc2)nc1-c1cc2c(o1)CCN(C(=O)CC#N)C2` is 8.02

GET /values?item= `COc1cc(Nc2ncc(C)c(-c3cc4c(o3)CCN(C(=O)CC#N)C4)n2)cc(OC)c1OC` &system= Tyrosine-protein kinase JAK2 (Homo sapiens, UniProt O60674) returns pIC50: 8.80

Per the reported Tyrosine-protein kinase JAK2 (Homo sapiens, UniProt O60674) data, `Cc1cnc(Nc2ccc(N3CCOCC3)cc2)nc1-c1cc2c(o1)CCN(C(=O)c1ccc(C#N)cc1)C2` has pIC50 of 7.54
